- Target desc: T1, biotin-labeled human PD-1 Fc protein (human, biotin-labeled (site not stated))
- T1 construct: also called PD-1-Fc-biotin
- T1 sequence (chain, as listed by the source limits assumed): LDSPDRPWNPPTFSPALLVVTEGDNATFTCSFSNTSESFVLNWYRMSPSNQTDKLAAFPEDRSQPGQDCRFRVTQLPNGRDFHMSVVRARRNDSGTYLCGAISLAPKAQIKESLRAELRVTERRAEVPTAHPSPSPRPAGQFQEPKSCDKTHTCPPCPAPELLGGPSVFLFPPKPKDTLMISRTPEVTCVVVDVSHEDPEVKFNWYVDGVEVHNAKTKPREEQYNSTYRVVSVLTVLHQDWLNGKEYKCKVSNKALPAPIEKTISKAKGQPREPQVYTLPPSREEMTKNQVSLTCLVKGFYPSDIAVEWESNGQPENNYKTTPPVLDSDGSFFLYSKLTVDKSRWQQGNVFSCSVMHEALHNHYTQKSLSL
- Measurement notes: capture ELISA, antibody captured on plate, biotin-labeled human PD-1 Fc in solution
Reported EC50 values for a set of binders
Please respond with the number in ng/mL and leave the unit unwritten.

Examples from the recorded data:
chimeric D2H3 antibody (antibody, human IgG1, kappa, V domains shown, Mouse variable domains cloned in frame to human IgG1 and kappa constant regions; also called chD2H3) VH: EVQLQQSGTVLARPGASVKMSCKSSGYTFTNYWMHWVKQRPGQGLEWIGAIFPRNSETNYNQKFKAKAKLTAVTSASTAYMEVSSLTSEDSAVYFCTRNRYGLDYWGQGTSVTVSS VL: DIVLTQSPGFLAVSLGQRATISCRASESVSLHGTRLMHWYHQKPGQPPKLLISLGSNLESGVPARFSGSGSETDFTLNIHPVEEEDAATYFCQQSIEDPWTFGGGTKLEIKR | 1.04
huD2H3-V4 (antibody, human IgG1, kappa, V domains shown, Humanized D2H3, human IgG1/kappa) VH: EVQLVQSGAEVKKPGSSVKVSCKSSGYTFTNYWMHWVRQAPGQGLEWIGAIFPRNSETNYNQKFKARVTLTADTSTSTAYMELSSLRSEDTAVYFCTRNRYGLDYWGQGTLVTVSS VL: DIVLTQSPDSLAVSLGERATINCRASESVSLHGTRLMHWYQQKPGQPPKLLISLGSNLESGVPDRFSGSGSETDFTLTISSLQAEDVAVYFCQQSIEDPWTFGQGTKLEIKR | 0.28
huD2H3-V6 (antibody, human IgG1, kappa, V domains shown, Humanized D2H3, human IgG1/kappa) VH: EVQLVQSGAEVKKPGSSVKVSCKSSGYTFTNYWMHWVRQAPGQGLEWIGAIFPRNSETNYNQKFKARATLTADESTSTAYMELSSLRSEDTAVYFCTRNRYGLDYWGQGTLVTVSS VL: DIVLTQSPDSLAVSLGERATINCRASESVSLHGTRLMHWYQQKPGQPPKLLISLGSNLESGVPDRFSGSGSETDFTLTISSLQAEDVAVYFCQQSIEDPWTFGQGTKLEIKR | 0.17

GET /value?item= huD2H3-V3 (antibody, human IgG1, kappa, V domains shown, Humanized D2H3, human IgG1/kappa) VH: EVQLVQSGAEVKKPGSSVKVSCKSSGYTFTNYWMHWVRQAPGQGLEWMGAIFPRNSETNYNQKFKARATLTADTSTSTAYMELSSLRSEDTAVYFCTRNRYGLDYWGQGTLVTVSS VL: DIVLTQSPDSLAVSLGERATINCRASESVSLHGTRLMHWYQQKPGQPPKLLISLGSNLESGVPDRFSGSGSETDFTLTISSLQAEDVAVYFCQQSIEDPWTFGQGTKLEIKR &field=EC50 returns 0.19

Notebook: huD2H3-V2 (antibody, human IgG1, kappa, V domains shown, Humanized D2H3, human IgG1/kappa) VH: EVQLVQSGAEVKKPGSSVKVSCKASGYTFTNYWMHWVRQAPGQGLEWIGAIFPRNSETNYNQKFKARATLTADTSTSTAYMELSSLRSEDTAVYFCTRNRYGLDYWGQGTLVTVSS VL: DIVLTQSPDSLAVSLGERATINCRASESVSLHGTRLMHWYQQKPGQPPKLLISLGSNLESGVPDRFSGSGSETDFTLTISSLQAEDVAVYFCQQSIEDPWTFGQGTKLEIKR , EC50 read as 0.21
